// data source = patent US10370402B2

Known D[v, 0.1] of a selection of compounds
# protocol_notes: Particle size distribution of recrystallised fluticasone propionate by laser diffraction (Malvern Mastersizer 2000)
# Assay type: physicochemical
# experimental_setup: 10th percentile volume diameter; recrystallised batch, before micronisation
Answer format: numeric, μm implied, no suffix.

1. CCC(=O)O[C@]1(C(=O)SCF)[C@H](C)C[C@H]2[C@@H]3C[C@H](F)C4=CC(=O)C=C[C@]4(C)[C@@]3(F)[C@@H](O)C[C@@]21C [Example 5]: 2.1
2. CCC(=O)O[C@]1(C(=O)SCF)[C@H](C)C[C@H]2[C@@H]3C[C@H](F)C4=CC(=O)C=C[C@]4(C)[C@@]3(F)[C@@H](O)C[C@@]21C [Example 8]: 1.3
3. CCC(=O)O[C@]1(C(=O)SCF)[C@H](C)C[C@H]2[C@@H]3C[C@H](F)C4=CC(=O)C=C[C@]4(C)[C@@]3(F)[C@@H](O)C[C@@]21C [Example 3]: 2.1
4. CCC(=O)O[C@]1(C(=O)SCF)[C@H](C)C[C@H]2[C@@H]3C[C@H](F)C4=CC(=O)C=C[C@]4(C)[C@@]3(F)[C@@H](O)C[C@@]21C [Example 6]: 2.0

// next item, D[v, 0.1] requested
Recorded result, CCC(=O)O[C@]1(C(=O)SCF)[C@H](C)C[C@H]2[C@@H]3C[C@H](F)C4=CC(=O)C=C[C@]4(C)[C@@]3(F)[C@@H](O)C[C@@]21C [Example 7] , D[v, 0.1]: 3.4

----------
# protocol_notes: Particle size distribution of recrystallised fluticasone propionate by laser diffraction (Malvern Mastersizer 2000)
# Format: physicochemical
# experimental_setup: 50th percentile (median) volume diameter; recrystallised batch, before micronisation
This listing pairs compounds with measured D[v, 0.5].
Just the number in μm, nothing appended.

Before answering, review these 2 worked examples.
1) CCC(=O)O[C@]1(C(=O)SCF)[C@H](C)C[C@H]2[C@@H]3C[C@H](F)C4=CC(=O)C=C[C@]4(C)[C@@]3(F)[C@@H](O)C[C@@]21C [Example 6]: 5.3
2) CCC(=O)O[C@]1(C(=O)SCF)[C@H](C)C[C@H]2[C@@H]3C[C@H](F)C4=CC(=O)C=C[C@]4(C)[C@@]3(F)[C@@H](O)C[C@@]21C [Example 2]: 6.7

Could you now consider this next compound?
get_value(item= CCC(=O)O[C@]1(C(=O)SCF)[C@H](C)C[C@H]2[C@@H]3C[C@H](F)C4=CC(=O)C=C[C@]4(C)[C@@]3(F)[C@@H](O)C[C@@]21C [Example 8] , readout=D[v, 0.5]) returns 2.8

----------
# protocol_notes: Particle size distribution of recrystallised fluticasone propionate by laser diffraction (Malvern Mastersizer 2000)
# Type: physicochemical
# experimental_setup: 50th percentile (median) volume diameter; recrystallised batch, before micronisation
Reported values of D[v, 0.5] for individual entries
Express it in μm; write the number only.

# annotated cases, reported D[v, 0.5] shown
1) CCC(=O)O[C@]1(C(=O)SCF)[C@H](C)C[C@H]2[C@@H]3C[C@H](F)C4=CC(=O)C=C[C@]4(C)[C@@]3(F)[C@@H](O)C[C@@]21C [Example 3]: 5.1
2) CCC(=O)O[C@]1(C(=O)SCF)[C@H](C)C[C@H]2[C@@H]3C[C@H](F)C4=CC(=O)C=C[C@]4(C)[C@@]3(F)[C@@H](O)C[C@@]21C [Example 4]: 55.1
3) CCC(=O)O[C@]1(C(=O)SCF)[C@H](C)C[C@H]2[C@@H]3C[C@H](F)C4=CC(=O)C=C[C@]4(C)[C@@]3(F)[C@@H](O)C[C@@]21C [Example 9]: 22.5
4) CCC(=O)O[C@]1(C(=O)SCF)[C@H](C)C[C@H]2[C@@H]3C[C@H](F)C4=CC(=O)C=C[C@]4(C)[C@@]3(F)[C@@H](O)C[C@@]21C [Example 7]: 11.4

Now for another entry.
Sure, the documented D[v, 0.5] for CCC(=O)O[C@]1(C(=O)SCF)[C@H](C)C[C@H]2[C@@H]3C[C@H](F)C4=CC(=O)C=C[C@]4(C)[C@@]3(F)[C@@H](O)C[C@@]21C [Example 5] is 5.9

----------
# protocol_notes: Particle size distribution of recrystallised fluticasone propionate by laser diffraction (Malvern Mastersizer 2000)
# Type: physicochemical
# experimental_setup: 90th percentile volume diameter; recrystallised batch, before micronisation
# Protocol: The particle size distribution was measured on the Malvern Mastersizer 2000 laser diffraction system equipped with a Hydro 2000S liquid dispersion unit and flow cell. […] The particle size data expressed as D[v, 0.1], D[v, 0.5] and D[v, 0.9] obtained from examples 2-9 are summarized below in Table 2. […]
Hi, to clarify the labels: 1.0 covers D[v, 0.9] from 20 μm upward, 0.0 covers anything below 20 μm.

Worked examples follow.
1) CCC(=O)O[C@]1(C(=O)SCF)[C@H](C)C[C@H]2[C@@H]3C[C@H](F)C4=CC(=O)C=C[C@]4(C)[C@@]3(F)[C@@H](O)C[C@@]21C [Example 8]: 0.0
2) CCC(=O)O[C@]1(C(=O)SCF)[C@H](C)C[C@H]2[C@@H]3C[C@H](F)C4=CC(=O)C=C[C@]4(C)[C@@]3(F)[C@@H](O)C[C@@]21C [Example 6]: 0.0
3) CCC(=O)O[C@]1(C(=O)SCF)[C@H](C)C[C@H]2[C@@H]3C[C@H](F)C4=CC(=O)C=C[C@]4(C)[C@@]3(F)[C@@H](O)C[C@@]21C [Example 3]: 0.0

Is reported D[v, 0.9] greater than or equal to 20 μm here: CCC(=O)O[C@]1(C(=O)SCF)[C@H](C)C[C@H]2[C@@H]3C[C@H](F)C4=CC(=O)C=C[C@]4(C)[C@@]3(F)[C@@H](O)C[C@@]21C [Example 7] 1.0

Does D[v, 0.9] meet or surpass 20 μm for CCC(=O)O[C@]1(C(=O)SCF)[C@H](C)C[C@H]2[C@@H]3C[C@H](F)C4=CC(=O)C=C[C@]4(C)[C@@]3(F)[C@@H](O)C[C@@]21C [Example 2] ? 0.0

----------
We begin with a simple list: items and their reported D[v, 0.9].
# protocol_notes: Particle size distribution of recrystallised fluticasone propionate by laser diffraction (Malvern Mastersizer 2000)
# Assay type: physicochemical
# experimental_setup: 90th percentile volume diameter; recrystallised batch, before micronisation
Give the figure together with its unit, number first.

Examples with answers:
1) CCC(=O)O[C@]1(C(=O)SCF)[C@H](C)C[C@H]2[C@@H]3C[C@H](F)C4=CC(=O)C=C[C@]4(C)[C@@]3(F)[C@@H](O)C[C@@]21C [Example 5]: 15.2 μm
2) CCC(=O)O[C@]1(C(=O)SCF)[C@H](C)C[C@H]2[C@@H]3C[C@H](F)C4=CC(=O)C=C[C@]4(C)[C@@]3(F)[C@@H](O)C[C@@]21C [Example 4]: 135.9 μm

# input for lookup
D[v, 0.9] for CCC(=O)O[C@]1(C(=O)SCF)[C@H](C)C[C@H]2[C@@H]3C[C@H](F)C4=CC(=O)C=C[C@]4(C)[C@@]3(F)[C@@H](O)C[C@@]21C [Example 9] is 53.4 μm

----------
# protocol_notes: Particle size distribution of recrystallised fluticasone propionate by laser diffraction (Malvern Mastersizer 2000)
# Format: physicochemical
# experimental_setup: 10th percentile volume diameter; recrystallised batch, before micronisation
value_type: D[v, 0.1]

Lab note: CCC(=O)O[C@]1(C(=O)SCF)[C@H](C)C[C@H]2[C@@H]3C[C@H](F)C4=CC(=O)C=C[C@]4(C)[C@@]3(F)[C@@H](O)C[C@@]21C [Example 2] gave D[v, 0.1] of 2.5 μm

What the record says about CCC(=O)O[C@]1(C(=O)SCF)[C@H](C)C[C@H]2[C@@H]3C[C@H](F)C4=CC(=O)C=C[C@]4(C)[C@@]3(F)[C@@H](O)C[C@@]21C [Example 9] : D[v, 0.1] is 6.2 μm

Briefly, D[v, 0.1] measured for CCC(=O)O[C@]1(C(=O)SCF)[C@H](C)C[C@H]2[C@@H]3C[C@H](F)C4=CC(=O)C=C[C@]4(C)[C@@]3(F)[C@@H](O)C[C@@]21C [Example 4] : 15.4 μm
